Provenance of the data: patent US20070117743A1

system: SK-BR-3; experiment: SRB colorimetric assay of cell growth and viability, SK-BR-3; type: cell-based, human; settings: 48 hours exposure, SRB
Record form. Attribute: LC50. Fill in for each entry.
Reply with just the number (in µM).

// query Give LC50 for C/C=C1\NC(=O)[C@H](Cc2ccccc2)NC(=O)[C@@H](C(C)C)NC(=O)[C@@H]([C@@H](C)CC)NC(=O)[C@H](NC(=O)[C@H](NC(=O)[C@H](CCCNC(=O)CCCC[C@@H]2SC[C@@H]3NC(=O)N[C@@H]32)NC(=O)[C@H]2CCCN2C(=O)[C@H](NC(=O)[C@@H](NC(=O)[C@@H](NC(=O)[C@H](NC(=O)CCCC(C)C)C(C)C)[C@@H](C)O)C(C)C)C(C)C)[C@@H](C)CC)[C@@H](C)OC(=O)[C@H](C(C)C)NC1=O [Compound 99, [Orn(Biot)^8]-Kahalalide F] tested on SK-BR-3.
// result 0.575

// query Using SK-BR-3 as the test system, report measured LC50 of C/C=C1\NC(=O)[C@H](Cc2ccccc2)NC(=O)[C@@H](C(C)C)NC(=O)[C@@H]([C@@H](C)CC)NC(=O)[C@H](NC(=O)[C@H](NC(=O)[C@H](CCCNC(=O)C(F)(F)F)NC(=O)[C@H]2CCCN2C(=O)[C@H](NC(=O)[C@@H](NC(=O)[C@@H](NC(=O)[C@H](NC(=O)CC[C@@H](C)CC)C(C)C)[C@@H](C)OC(=O)C(F)(F)F)C(C)C)C(C)C)[C@@H](C)CC)[C@@H](C)OC(=O)[C@H](C(C)C)NC1=O [Compound 95] .
// result 0.52

----------
tested on: K-562; assay: SRB colorimetric assay of cell growth and viability, K-562; format: cell-based, human; conditions: 48 hours exposure, SRB
Where a SMILES comes first, the peptide text is derived from it. Bridges are numbered along the chain shown (N, C = ends). [ ]: non-standard residue; d: D form. The star is where a group is joined. d(aIle) = CC[C@H](C)[C@@H](N)C(=O)O; d(aThr) = C[C@@H](O)[C@@H](N)C(=O)O; Hexanoyl(5-Me) = CC(C)CCCC(=O)*; Orn = NCCC[C@H](N)C(=O)O
measured quantity: GI50 (µM)
Numeric only. Scale: µM

// query Consider the compound CC[C@H](C)[C@@H](NC(=O)[C@H](CCCN)NC(=O)[C@H]1CCCN1C(=O)[C@H](NC(=O)[C@@H](NC(=O)[C@@H](NC(=O)[C@H](NC(=O)CCCC(C)C)C(C)C)[C@@H](C)O)C(C)C)C(C)C)C(=O)N[C@H]1C(=O)N[C@H]([C@@H](C)CC)C(=O)N[C@H](C(C)C)C(=O)N[C@@H](Cc2ccccc2)C(=O)NCC(=O)N[C@@H](C(C)C)C(=O)O[C@@H]1C [Compound 65, [Gly^2]-KF] ({Hexanoyl(5-Me)}-[dV]TV[dV][dP][Orn][d(aIle)][d(aThr)][d(aIle)][dV]FGV; ester 8-C) tested on K-562; state its GI50.
// result 3

----------
tested on: SK-BR-3; test: SRB colorimetric assay of cell growth and viability, SK-BR-3; format: cell-based, human; details: 48 hours exposure
measured quantity: GI50 (nM)
Value expressed in nM; do not type the unit.

// query Tell me GI50 reported for C/C=C1\NC(=O)[C@H](Cc2ccccc2)NC(=O)[C@@H](C(C)C)NC(=O)[C@@H]([C@@H](C)CC)NC(=O)[C@H](NC(=O)[C@H](NC(=O)[C@H](CCCN)NC(=O)[C@H]2CCCN2C(=O)[C@H](NC(=O)[C@@H](NC(=O)[C@@H](NC(=O)[C@H](NC(=O)c2ccc(C(F)(F)F)cc2)C(C)C)[C@@H](C)O)C(C)C)C(C)C)[C@@H](C)CC)[C@@H](C)OC(=O)[C@H](C(C)C)NC1=O [Compound 21, [p-CF3Bza^14]-KF]
// result 111

// query Output measured GI50 for this item: C/C=C1\NC(=O)[C@H](Cc2ccccc2)NC(=O)[C@@H](C(C)C)NC(=O)[C@@H]([C@@H](C)CC)NC(=O)[C@H](NC(=O)[C@H](NC(=O)[C@H](CCCN)NC(=O)[C@H]2CCCN2C(=O)[C@H](NC(=O)[C@@H](NC(=O)[C@@H](NC(=O)[C@H](NC(=O)c2ccccc2)C(C)C)[C@@H](C)O)C(C)C)C(C)C)[C@@H](C)CC)[C@@H](C)OC(=O)[C@H](C(C)C)NC1=O [Compound 20, [Bza^14]-KF]
// result 320
